procedure_text: MTT cell viability assay, HaCaT
Assay type: cell-based, human
run_parameters: human, HaCaT cells, 100 μΜ, 24 h
reported_metric: viability at 24 h, 100 μM (%)

>  <molecule>
Cc1c(-c2ccc(F)cc2)c(=O)oc2cccc(O)c12 [Compound 4f]

>  <unit_abbreviation>
%

>  <data_value>
100

$$$$
>  <molecule>
CC(=O)Oc1cccc2oc(=O)c(-c3ccccc3Cl)c(C)c12 [Compound 3a]

>  <unit_abbreviation>
%

>  <data_value>
100

$$$$
>  <molecule>
Cc1c(-c2ccc(O)cc2)c(=O)oc2c(Br)cc(Br)cc12 [Compound 4k]

>  <unit_abbreviation>
%

>  <data_value>
100

$$$$
>  <molecule>
CC(=O)Oc1cccc2oc(=O)c(-c3cccc(F)c3)c(C)c12 [Compound 3e]

>  <unit_abbreviation>
%

>  <data_value>
96.5

$$$$
>  <molecule>
Cc1c(-c2ccc(O)cc2)c(=O)oc2ccc(Br)cc12 [Compound 4i]

>  <unit_abbreviation>
%

>  <data_value>
100

$$$$

----------
system: human serum albumin (HSA) (Homo sapiens)
Construct: purchased CHIRAL PAK
Sequence (P02768 25-609): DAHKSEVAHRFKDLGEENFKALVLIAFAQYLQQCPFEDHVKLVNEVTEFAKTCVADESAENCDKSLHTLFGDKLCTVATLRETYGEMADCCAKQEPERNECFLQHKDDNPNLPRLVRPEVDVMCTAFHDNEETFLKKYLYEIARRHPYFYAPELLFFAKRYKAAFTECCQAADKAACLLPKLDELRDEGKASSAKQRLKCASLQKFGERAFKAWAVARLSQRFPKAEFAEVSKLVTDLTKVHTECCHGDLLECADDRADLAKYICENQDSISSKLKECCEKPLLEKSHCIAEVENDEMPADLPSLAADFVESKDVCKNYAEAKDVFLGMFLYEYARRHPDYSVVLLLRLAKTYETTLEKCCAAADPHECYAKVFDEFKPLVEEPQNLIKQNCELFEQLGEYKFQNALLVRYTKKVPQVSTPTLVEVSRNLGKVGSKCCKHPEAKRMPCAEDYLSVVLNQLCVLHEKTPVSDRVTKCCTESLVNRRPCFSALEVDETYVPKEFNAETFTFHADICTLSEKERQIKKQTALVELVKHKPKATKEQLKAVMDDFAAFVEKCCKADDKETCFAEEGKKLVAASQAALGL
procedure_text: HSA chromatography and estimated plasma protein binding
Type: in vitro ADME
run_parameters: human, immobilized human serum albumin (HSA) column; Equation (2) from logk10, pH 7.00; read-out: %PPB estimated plasma protein binding (converted)
fraction unbound for assorted compounds
reported_metric: fraction unbound

>  <smiles_data>
CC(=O)Oc1ccc(-c2c(C)c3cc(Cl)ccc3oc2=O)cc1

>  <data_value>
0.088

$$$$
>  <smiles_data>
Cc1c(-c2ccc(O)cc2)c(=O)oc2ccccc12

>  <data_value>
0.03

$$$$
>  <smiles_data>
Cc1c(-c2ccccc2Cl)c(=O)oc2cccc(O)c12

>  <data_value>
0.13

$$$$
>  <smiles_data>
CC(=O)Oc1ccc(-c2c(C)c3cc(Br)ccc3oc2=O)cc1

>  <data_value>
0.059

$$$$
>  <smiles_data>
CC(=O)Oc1ccc(-c2c(C)c3cc(Br)cc(Br)c3oc2=O)cc1OC(C)=O

>  <data_value>
0.201

$$$$
>  <smiles_data>
CC(=O)Oc1ccc(-c2c(C)c3cc(Br)ccc3oc2=O)cc1OC(C)=O

>  <data_value>
0.105

$$$$
>  <smiles_data>
Cc1c(-c2ccc(F)cc2)c(=O)oc2cccc(O)c12

>  <data_value>
0.163

$$$$
>  <smiles_data>
CC(=O)Oc1cccc2oc(=O)c(-c3cccc(Cl)c3)c(C)c12

>  <data_value>
0.128

$$$$
>  <smiles_data>
Cc1c(-c2ccc(O)cc2)c(=O)oc2ccc(Br)cc12

>  <data_value>
0.043

$$$$

----------
system: human serum albumin (HSA) (Homo sapiens)
Construct: purchased CHIRAL PAK
procedure_text: HSA chromatography and estimated plasma protein binding
Type: in vitro ADME
run_parameters: pH 7.00, 10% acetonitrile
logk10 (HSA retention factor) for assorted compounds
reported_metric: logk10 (HSA retention factor)

>  <compound>
CC(=O)Oc1ccc(-c2c(C)c3ccccc3oc2=O)cc1 [Compound 3h]

>  <reported_metric>
logk10 (HSA retention factor)

>  <data_value>
0.74

$$$$
>  <compound>
CC(=O)Oc1ccc(-c2c(C)c3cc(Br)cc(Br)c3oc2=O)cc1 [Compound 3k]

>  <reported_metric>
logk10 (HSA retention factor)

>  <data_value>
1.63

$$$$
>  <compound>
CC(=O)Oc1ccc(-c2c(C)c3cc(Cl)ccc3oc2=O)cc1OC(C)=O [Compound 3n]

>  <reported_metric>
logk10 (HSA retention factor)

>  <data_value>
0.74

$$$$
>  <compound>
CC(=O)Oc1cccc2oc(=O)c(-c3ccccc3Cl)c(C)c12 [Compound 3a]

>  <reported_metric>
logk10 (HSA retention factor)

>  <data_value>
0.57

$$$$
>  <compound>
Cc1c(-c2ccc(Cl)cc2)c(=O)oc2cccc(O)c12 [Compound 4c]

>  <reported_metric>
logk10 (HSA retention factor)

>  <data_value>
0.72

$$$$
>  <compound>
Cc1c(-c2cccc(Cl)c2)c(=O)oc2cccc(O)c12 [Compound 4b]

>  <reported_metric>
logk10 (HSA retention factor)

>  <data_value>
0.58

$$$$
